Origin of the recorded values: the supplement of paper PMC12533247

- Tested on: HSV-1 K26-GFP infected primary human skin cells
- measurement description: % change of HSV-1 GFP signal vs untreated infected cells; higher = less antiviral inhibition
- condition parameters: 0.0274 µM; cell type: primary keratinocytes; donor: 4; time (h post infection): 20
value kind: % change of HSV-1 GFP signal
Write down the value, and be sure its unit follows.

Prompt: Entry under review: O=C(/C=C\n1cnc(-c2cc(C(F)(F)F)cc(C(F)(F)F)c2)n1)NNc1ccccn1 [Verdinexor] . Reported % change of HSV-1 GFP signal?
Completion: -29.6%

Prompt: Entry under review: Nc1ccn([C@@H]2O[C@H](CO)[C@@H](O)C2(F)F)c(=O)n1 [Gemcitabine] . Reported % change of HSV-1 GFP signal?
Completion: -17.4%

Prompt: Entry under review: CC(=O)O[C@H]1C[C@H](O[C@H]2[C@@H](O)C[C@H](O[C@H]3[C@@H](O)C[C@H](O[C@H]4CC[C@@]5(C)[C@H](CC[C@@H]6[C@@H]5C[C@@H](O)[C@]5(C)[C@@H](C7=CC(=O)OC7)CC[C@]65O)C4)O[C@@H]3C)O[C@@H]2C)O[C@H](C)[C@H]1O[C@@H]1O[C@H](CO)[C@@H](O)[C@H](O)[C@H]1O [Lanatoside C] . Reported % change of HSV-1 GFP signal?
Completion: -9.65%

Prompt: Entry under review: O=C(Nc1ccc([N+](=O)[O-])cc1Cl)c1cc(Cl)ccc1O [Niclosamide] . Reported % change of HSV-1 GFP signal?
Completion: -0.315%

Prompt: Entry under review: COc1ccc(-c2nc(N3CCOCC3)c3sc(CN(C)c4ncc(C(=O)NO)cn4)cc3n2)cn1 [Fimepinostat] . Reported % change of HSV-1 GFP signal?
Completion: -17.4%

Prompt: Entry under review: CC(C)c1cnn2c(NCc3ccccc3-n3cccn3)nc(OC3CCCNC3)nc12 (stereo not given) [LDC4297] . Reported % change of HSV-1 GFP signal?
Completion: -23.4%

Prompt: Entry under review: Cc1cccc(C)c1N(CC(=O)Nc1ccc(-c2ncon2)cc1)C(=O)C1CCS(=O)(=O)CC1 [Amenamevir] . Reported % change of HSV-1 GFP signal?
Completion: -15.3%

Prompt: Entry under review: C=CC(=O)N1CC/C(=C\c2ccc(F)c([N+](=O)[O-])c2)C(=O)/C(=C/c2ccc(F)c([N+](=O)[O-])c2)C1 [VLX1570] . Reported % change of HSV-1 GFP signal?
Completion: -1.76%

Prompt: Entry under review: CC1(C)CC(=O)c2c(C(F)(F)F)nn(-c3ccc(C(N)=O)c(N[C@H]4CC[C@H](O)CC4)c3)c2C1 [SNX-2112] . Reported % change of HSV-1 GFP signal?
Completion: -5.23%

Prompt: Entry under review: Cc1nc(N(C)C(=O)Cc2ccc(-c3ccccn3)cc2)sc1S(N)(=O)=O [Pritelivir] . Reported % change of HSV-1 GFP signal?
Completion: -0.535%
